Biological target: T1, hTSLPR-ECTO-His (human)
T1 chain: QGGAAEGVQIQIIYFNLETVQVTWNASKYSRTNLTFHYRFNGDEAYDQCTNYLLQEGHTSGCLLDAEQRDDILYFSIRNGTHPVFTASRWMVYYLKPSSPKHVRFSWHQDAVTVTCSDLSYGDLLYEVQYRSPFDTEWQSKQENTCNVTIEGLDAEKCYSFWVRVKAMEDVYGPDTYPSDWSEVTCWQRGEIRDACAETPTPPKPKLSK
Experiment: ELISA, plate coated with TSLPR 50 ng/well, HRP goat anti-mouse detection
Description: The ELISA measures the EC50 of certain mouse anti-TSLPR antibodies generated according to Example 2 are reported on Table 4. The antibodies were purified from hybridoma supernatants, and his-hTSLPR or cTSLPR-Ig was used to determine binding affinity. Coating of plates was performed as follows: TSLPR (50 ng per well) in PBS was incubated at 4° C. overnight. Plates were washed with 1 cycle (3 washes/cycle) on a Molecular Devices plate washer. […] Plates read at) or A_{405 nm}. […]
measurement type: EC50 (µg/mL)
Numeric only. Scale: µg/mL

Some binders with known EC50 results, for comparison:
- binder: "mouse antibody 54A11 (antibody, mouse IgG2a, V domains shown, Mouse IgG2a/kappa from hybridoma; also called m54A11; LB55.54A11.3D6) VH: EVQLQQSGPELVKPRASVKISCKASGYSFTGYYIHWVKQSHVKSLEWIGRINPYNGATIYNPNFKDKASLTVDKSSSTAFMEVHSLTSEDSAVYYCARSYGYVNYFDYWGQGTTLTVSS VL: EIVLTQSPATLSVTPGDSVSLSCRASQSISNNLHWYHQKSHESPRLLIKFGFQSISGIPSRFSGSGSGTDFTLSINSVETEDFGMYFCQQTNSWLTFGAGTKLELKR"
  EC50 (µg/mL): 0.0458
- binder: "mouse antibody 61C11 (antibody, mouse IgG2a, V domains shown, Mouse IgG2a/kappa from hybridoma; also called m61C11; LB55.61C11.2B1) VH: QAYLQQSGAELVRSGASVKMSCKASGYTFTSYNLHWIKLTPGQGLEWIGYIYPGLNGTLYNQKFRGKATLTADTSSSTAYMQISSLTSEDSAVYFCARSDYGKAWFAYWGRGTLVTVSA VL: DILLTQSPAILSVSPGERVSFSCRASQSIATKIHWYQQRTDHSPRLLIQLGSESISGIPSRFSGSGSGTDFTFTINSVESEDIAVYYCQQSNRYPYTFGGGTKLEVKR"
  EC50 (µg/mL): 0.026
- binder: "mouse antibody 4G8 (antibody, mouse IgG1, V domains shown, Mouse IgG1/kappa from hybridoma; also called m4G8; LB55.4G8.2A6) VH: QVQLKQSGPGLVQPSQSLSITCTVSGFSLTIYGLHWVRQSPGKGLEWLGVIWRGGSTDYNAAFMSRLRITKDNSKSQVFFKMDSLQADDTAIYYCAKPYYDYDGNWYFDVWGAGTTVTVSS VL: DIVMTQSQKFMSTSVGDRVSVTCKASQNVGTNVAWYQKKSGQSPKPLIYSASSHCSEVPDRFTGSGSGTDFTLTINNVQSEDLAEYFCQQYNRYPLTFGTGTKLEVRR"
  EC50 (µg/mL): 0.0059

Please look at the following binder next.
// field: EC50; key: mouse antibody 49A5 (antibody, mouse IgG1, V domains shown, Mouse IgG1/kappa from hybridoma; also called m49A5; LB55.49A5.2F9) VH: QVQLKQSGPGLVQPSQSLSITCTVSGFSLTTYGVHWVRQSPGKGLEWLGVIWRGGNTAYNPAFMSRLSITKDNSKSQVFFKMNSLQADDTAIYHCAKKSYYGYHAMGYWGQGTSVTVSS VL: DIQMTQTTSSLSASLGDRVTINCRASQDISNYLNWYQQNPDGTVKLLIYYTSRLHSGVPSRFSGSGSGTDYSLTISNLEQEDIATYFCQQANTLPWTFGGGTKLEIKR ; value = 0.0417

The measurements presented in this section are drawn from patent US20110020369A1.
